Origin of measurements: patent US6747136

molecular target: T1, recombinant conformational HCV E2 antigen (HCV genotype 1a) (hepatitis C virus, HCV1 (genotype 1a), UniProt P26664 383-715); assay: inhibition ELISA: coated E2 1a, soluble E2 as inhibitor
T1 construct: range 383-715; also called CHO E2; E2 1a
T1 sequence (P26664 383-715): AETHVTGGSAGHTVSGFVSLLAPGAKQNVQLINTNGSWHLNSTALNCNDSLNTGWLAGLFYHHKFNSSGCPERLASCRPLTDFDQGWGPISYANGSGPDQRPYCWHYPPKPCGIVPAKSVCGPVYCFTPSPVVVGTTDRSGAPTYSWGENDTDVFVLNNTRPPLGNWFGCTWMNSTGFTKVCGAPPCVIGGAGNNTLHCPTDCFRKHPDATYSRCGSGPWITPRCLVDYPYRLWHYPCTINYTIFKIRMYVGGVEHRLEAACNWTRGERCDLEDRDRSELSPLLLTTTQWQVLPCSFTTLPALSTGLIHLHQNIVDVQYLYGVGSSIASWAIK
PROPERTY MEASURED: Ka

Fill in Ka for record Fab molecule clone 1:7 (Fab, V domains shown) VH: VQLLEQSGAEVKKPGSSVKVSCQVFGDTFSRYTIQWLRQAPGQGPEWMGNIIPVYNTPNYAQKFQGRLSITADDSTSTAYMELSSLRSEDTAVYFCARVVIPNAIRHTMGYYFDYWGQGTLVTVSS VL: AELTQSPATLSLSPGERATLSCRASQSVNKYLAWYQQKPGQAPRLLIYDASNRATGIPARFSGSGSGTDFTLTISNLEPEDFAVYYCQQRSDWVTFGGGTKVEIK
~2e+08 M⁻¹

Give me measured Ka, please, for this binder: Fab molecule clone 1:11 (Fab, V domains shown) VH: VQLLEQSGAEVKKPGSSVKVSCKASGGTFSGHVISWVRQAPGQGLEWMGGSISFFGTSNSAQKFQGRVSITADESASTAYMELSSLRSEDTAIYYCAKDPPRFCSGGNCYPGFFQQWGQGTLVTVSS VL: AELTQSPGTLSLSPGERATLSCGASQSVRSNYLAWYQQKPGQAPRLLIYGVSSRATGIPDRFSGSGSGTDFTLTISRLEPEDFAVYYCQQYGSSPRTFGQGTKLEIK
~4e+07 M⁻¹

Supply reported Ka belonging to this binder: Fab molecule clone A12 (Fab, V domains shown) VH: EVQLLESGSEVKKPGSSVKVSCRASGGSFRSYNFNWVRQAPGQGLEWMGGIIPMFGTANYAQKFQGRVTITADESTATGYMELSSLRSEDTAVYYCAMPYPKHCSRGSCWGWFDPWGQGTLVTVSS VL: AELTQSPGTLSLSPGERATLSCRASQSLSSKYLAWYQQKPGQAPRLFIYDASSRATGIPDRFSGSGSGTDFTLSISRLEPEDFAVYYCQQYGTPRTFGQGTKVEIK
~1e+07 M⁻¹

Respond only with Ka recorded for Fab molecule clone A8 (Fab, V domains shown) VH: EVQLLESGPGLVKPSGTLSLTCTVSGGSIRSSHWWSWVRQPPGKGLEWIGEVFFSGSTIYNPSLNDRVFMSVDKSKDQVSLRLSSVTAADTAVYYCARSPIKMNQGRMMLDAFDIWGQGTLVIVSS VL: AELTQSPSSLSAFVGDRVTITCRASQSISRNLNWYQQKPGTAPKVLIYAASSLQSGVPSRFSGSGSGTDFTLTITSLQPEDFATYYCQQSYTTPRTFGQGTKVEVK
~2e+08 M⁻¹
